Parameter logP: see the listing below.
# protocol: Octanol/[…] partition coefficient, log P of the compound
# Type: physicochemical
observable: logP

compound_string=N#C[C@@H]1CC(F)(F)CN1C(=O)CNC(=O)c1ccnc2ccc(OCCCN3CCN(C(=O)CCCc4ccc([211At])cc4)CC3)cc12 observable=logP measurement=2.37
compound_string=N#C[C@@H]1CC(F)(F)CN1C(=O)CNC(=O)c1ccnc2ccc(OCCCN3CCN(C(=O)c4ccc([131I])cc4)CC3)cc12 observable=logP measurement=2.12
compound_string=N#C[C@@H]1CC(F)(F)CN1C(=O)CNC(=O)c1ccnc2ccc(OCCCN3CCN(C(=O)c4ccc([211At])cc4)CC3)cc12 observable=logP measurement=1.96
compound_string=N#C[C@@H]1CC(F)(F)CN1C(=O)CNC(=O)c1ccnc2ccc(OCCCN3CCN(C(=O)CCCc4ccc([131I])cc4)CC3)cc12 observable=logP measurement=2.43
